Hey, just so you know, these numbers are from BindingDB's records for doi:10.1021/jm00070a001.

The entries below come with measured IC50 values attached.
target: Endothelin-1 receptor (Oryctolagus cuniculus); test: Effective concentration against ET A receptor from rabbit renal artery vascular smooth muscle cells
Where a SMILES comes first, the peptide text is derived from it. [ ]: non-standard residue; d: D form.
Only the number, expressed in µM, is required.

{"compound": "CC[C@H](C)[C@H](NC(=O)[C@H](CC(=O)O)NC(=O)[C@H](CC(C)C)NC(=O)[C@@H](Cc1ccccc1)NC(C)=O)C(=O)N[C@H](C(=O)N[C@@H](Cc1csc2ccccc12)C(=O)O)[C@@H](C)CC [Ac-D-Phe-Leu-Asp-Ile-Ile-Bta]", "uom": "µM", "quantitative-result": 14}

Form field - read-out: IC50; system: Endothelin-1 receptor (Oryctolagus cuniculus); submitted item: CC[C@H](C)[C@H](NC(=O)[C@H](C)NC(=O)[C@H](CC(=O)O)NC(=O)[C@H](CC(C)C)NC(=O)[C@@H](Cc1ccccc1)NC(C)=O)C(=O)N[C@@H](Cc1c[nH]c2ccccc12)C(=O)O [Ac-D-Phe-Leu-Asp-Ala-Ile-Trp] (Ac-[dF]LDAIW-OH) 3.6

For CC[C@H](C)[C@H](NC(=O)[C@H](CC(=O)O)NC(=O)[C@H](CC(C)C)NC(=O)[C@@H](Cc1ccccc1)NC(C)=O)C(=O)N[C@@H](C)C(=O)N[C@@H](Cc1c[nH]c2ccccc12)C(=O)O [Ac-D-Phe-Leu-Asp-Ile-Ala-Trp] (Ac-[dF]LDIAW-OH) then? 8

For CC[C@H](C)[C@H](NC(=O)[C@H](CC(=O)O)NC(=O)[C@H](CC(C)C)NC(=O)[C@@H](Cc1ccc(O)cc1)NC(C)=O)C(=O)N[C@H](C(=O)N[C@@H](Cc1c[nH]c2ccccc12)C(=O)O)[C@@H](C)CC (Ac-[dY]LDIIW-OH) then? 0.4
